Value source: patent US20210283261A1

Can you tell me Dmax at 0.03 µM for the items I'm about to list?
- SYSTEM_NAME: NPM-ALK fusion protein (Homo sapiens, UniProt Q9UM73)
- Construct: endogenous in cells; host or cells: SU-DHL-1; the other entry of the earlier key: NPM1 (P06748, Nucleophosmin)
- Sequence (Q9UM73 with tags, fused parts or gaps): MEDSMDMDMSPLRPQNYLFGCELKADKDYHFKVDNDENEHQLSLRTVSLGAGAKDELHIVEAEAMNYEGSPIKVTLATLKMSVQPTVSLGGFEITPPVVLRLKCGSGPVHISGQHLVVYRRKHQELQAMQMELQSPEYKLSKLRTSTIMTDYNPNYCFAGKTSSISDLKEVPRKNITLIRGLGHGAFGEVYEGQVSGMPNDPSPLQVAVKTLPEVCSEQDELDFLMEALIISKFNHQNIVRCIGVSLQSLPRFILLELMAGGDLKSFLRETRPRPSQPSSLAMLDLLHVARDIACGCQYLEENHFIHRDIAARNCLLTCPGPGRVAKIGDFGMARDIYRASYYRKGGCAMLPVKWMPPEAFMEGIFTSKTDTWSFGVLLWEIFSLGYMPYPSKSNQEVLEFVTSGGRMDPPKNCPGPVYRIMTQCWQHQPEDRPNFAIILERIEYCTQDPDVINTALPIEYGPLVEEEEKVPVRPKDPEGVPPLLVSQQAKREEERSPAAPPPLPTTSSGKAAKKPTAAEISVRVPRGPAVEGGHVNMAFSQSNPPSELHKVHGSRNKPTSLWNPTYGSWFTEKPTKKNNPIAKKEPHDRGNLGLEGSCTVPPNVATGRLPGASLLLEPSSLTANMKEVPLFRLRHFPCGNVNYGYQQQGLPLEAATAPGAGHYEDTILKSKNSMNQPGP
- PROTOCOL: Western blot of NPM-ALK fusion protein levels in SU-DHL-1 cells
- Type: cell-based
- COND: SU-DHL-1 cells, 30 nM, Western blot; read-out: ALK fusion protein degradation, SU-DHL-1 (30 nM)

Worked set:
[
  {
    "MOLECULE": "Cc1cc(Nc2ncc(Cl)c(Nc3ccccc3S(=O)(=O)C(C)C)n2)c(OC(C)C)cc1C1CCN(CC(=O)NCCCCCNc2cccc3c2C(=O)N(C2CCC(=O)NC2=O)C3=O)CC1 (stereo not drawn) [CZ40-81]",
    "REPORTED": "> 80%"
  },
  {
    "MOLECULE": "Cc1cc(Nc2ncc(Cl)c(Nc3ccccc3S(=O)(=O)C(C)C)n2)c(OC(C)C)cc1C1CCN(CC(=O)NCCCCCCC(=O)N[C@H](C(=O)N2C[C@H](O)C[C@H]2C(=O)NCc2ccc(-c3scnc3C)cc2)C(C)(C)C)CC1 [CZ40-90]",
    "REPORTED": "< 20%"
  },
  {
    "MOLECULE": "Cc1cc(Nc2ncc(Cl)c(Nc3ccccc3S(=O)(=O)C(C)C)n2)c(OC(C)C)cc1C1CCN(CC(=O)NCCOCCOCCOCCOCCC(=O)N[C@H](C(=O)N2C[C@H](O)C[C@H]2C(=O)NCc2ccc(-c3scnc3C)cc2)C(C)(C)C)CC1 [CZ40-87]",
    "REPORTED": "< 20%"
  },
  {
    "MOLECULE": "Cc1cc(Nc2ncc(Cl)c(Nc3ccccc3S(=O)(=O)C(C)C)n2)c(OC(C)C)cc1C1CCN(CC(=O)NCCOCCOCC(=O)N[C@H](C(=O)N2C[C@H](O)C[C@H]2C(=O)NCc2ccc(-c3scnc3C)cc2)C(C)(C)C)CC1 [CZ40-86]",
    "REPORTED": "< 20%"
  },
  {
    "MOLECULE": "Cc1cc(Nc2ncc(Cl)c(Nc3ccccc3S(=O)(=O)C(C)C)n2)c(OC(C)C)cc1C1CCN(CC(=O)NCCCCCCCNc2cccc3c2C(=O)N(C2CCC(=O)NC2=O)C3=O)CC1 (stereo not drawn) [CZ40-83]",
    "REPORTED": "> 80%"
  }
]

Consider now this further molecule.
Lookup: Could you tell me which Dmax at 0.03 µM is on file for Cc1cc(Nc2ncc(Cl)c(Nc3ccccc3S(=O)(=O)C(C)C)n2)c(OC(C)C)cc1C1CCN(CC(=O)NCCCCC(=O)N[C@H](C(=O)N2C[C@H](O)C[C@H]2C(=O)NCc2ccc(-c3scnc3C)cc2)C(C)(C)C)CC1 [CZ40-88] ?
Found: 20 to 80%
